Tested on: T47D human breast cancer cells
assay-remarks: In Vitro Testing-T47 D Assay (alkaline phosphatase assay)
Assay type: cell-based
condition-parameters: Homo sapiens, alkaline phosphatase luminescence readout after 24 h
reported-endpoint: IC50 (µM)

>  <molecule>
CC(C)(O)c1[nH]c2cc(C(F)(F)F)c([N+](=O)[O-])cc2c1Sc1ccccc1 [Example 1]

>  <tested-system>
T47D human breast cancer cells

>  <measurement-unit>
µM

>  <val>
0.062

$$$$
>  <molecule>
CC(C)(O)c1[nH]c2cc(C(F)(F)F)c(C#N)cc2c1Sc1cccc([N+](=O)[O-])c1 [Example 4]

>  <tested-system>
T47D human breast cancer cells

>  <measurement-unit>
µM

>  <val>
2.19

$$$$
